Molecular target: calcium sensing receptor as found in the human parathyroid gland (Homo sapiens, UniProt P41180)
Sequence (P41180 20-1078): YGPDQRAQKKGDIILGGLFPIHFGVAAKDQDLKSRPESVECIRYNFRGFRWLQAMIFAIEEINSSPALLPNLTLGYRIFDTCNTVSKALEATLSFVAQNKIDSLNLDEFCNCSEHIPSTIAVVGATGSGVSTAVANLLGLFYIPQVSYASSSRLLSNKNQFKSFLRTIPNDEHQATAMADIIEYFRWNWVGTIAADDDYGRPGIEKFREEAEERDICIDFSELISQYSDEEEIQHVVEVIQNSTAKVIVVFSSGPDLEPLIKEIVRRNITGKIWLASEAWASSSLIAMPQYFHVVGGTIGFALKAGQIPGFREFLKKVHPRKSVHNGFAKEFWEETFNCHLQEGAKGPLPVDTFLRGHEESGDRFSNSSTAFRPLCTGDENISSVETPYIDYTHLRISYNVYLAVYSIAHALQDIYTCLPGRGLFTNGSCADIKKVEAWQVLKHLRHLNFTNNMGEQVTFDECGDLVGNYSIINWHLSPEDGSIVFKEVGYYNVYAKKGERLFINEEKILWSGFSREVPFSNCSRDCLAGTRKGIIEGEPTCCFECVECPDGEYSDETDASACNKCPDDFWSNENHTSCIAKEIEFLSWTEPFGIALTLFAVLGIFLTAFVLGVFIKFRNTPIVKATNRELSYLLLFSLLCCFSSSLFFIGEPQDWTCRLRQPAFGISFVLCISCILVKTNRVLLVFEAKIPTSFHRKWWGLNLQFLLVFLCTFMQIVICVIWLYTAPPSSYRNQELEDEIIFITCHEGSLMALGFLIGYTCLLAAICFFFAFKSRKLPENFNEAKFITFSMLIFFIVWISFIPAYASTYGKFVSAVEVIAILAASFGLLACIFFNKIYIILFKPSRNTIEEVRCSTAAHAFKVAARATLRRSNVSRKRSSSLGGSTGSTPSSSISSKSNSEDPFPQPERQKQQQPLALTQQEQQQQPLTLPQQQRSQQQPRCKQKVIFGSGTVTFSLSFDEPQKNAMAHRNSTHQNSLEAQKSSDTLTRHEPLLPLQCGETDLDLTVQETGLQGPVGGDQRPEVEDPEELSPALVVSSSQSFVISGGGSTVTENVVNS
Assay: calcium mobilization fluorescence (FLIPR) assay, agonist mode
Details: transfected HEK 293 cells; 1 mM calcium standard; Tables 2-7; read-out: In Vitro: CS50, where potency is at 50% of the calcium standard potency
pEC50: −log10 of the molar value.

Compound | Relation Sign | pEC50
COc1cccc([C@@H](C)NCC2CC2c2cccn2C)c1 (stereo partly drawn) | = | 5.11
COc1cccc([C@@H](C)NCC2CC2c2cc(C)ccc2C)c1 (stereo partly drawn) [Compound 32] | = | 4.91
COc1cccc([C@@H](C)NC[C@@H]2C[C@@H]2c2cc(C)ccc2C)c1 | = | 4.68
COc1cccc([C@@H](C)NC[C@@H]2C[C@@H]2c2ccccc2)c1 | = | 4.95
CCC(=O)N(C[C@@H]1C[C@H]1c1ccccc1)[C@H](C)c1cccc(OC)c1 | < | 4.60
COC(=O)N(C[C@@H]1C[C@H]1c1ccccc1)[C@H](C)c1cccc(OC)c1 | < | 4.60
c1ccc([C@@H]2C[C@H]2CNCc2ccncc2)cc1 (relative stereo) | < | 4.60
COc1cccc([C@@H](C)NCC2CC2c2ccccc2C)c1 (stereo partly drawn) | = | 5.06
CCc1cccc(C(C)NC[C@@H]2C[C@H]2c2ccccc2)c1 (stereo partly drawn) | < | 4.60
